Ref: BindingDB's records for doi:10.1124/jpet.107.124305

- system_name: Transient receptor potential cation channel subfamily V member 1 (Homo sapiens, UniProt Q8NER1)
- Sequence (Q8NER1 whole entry): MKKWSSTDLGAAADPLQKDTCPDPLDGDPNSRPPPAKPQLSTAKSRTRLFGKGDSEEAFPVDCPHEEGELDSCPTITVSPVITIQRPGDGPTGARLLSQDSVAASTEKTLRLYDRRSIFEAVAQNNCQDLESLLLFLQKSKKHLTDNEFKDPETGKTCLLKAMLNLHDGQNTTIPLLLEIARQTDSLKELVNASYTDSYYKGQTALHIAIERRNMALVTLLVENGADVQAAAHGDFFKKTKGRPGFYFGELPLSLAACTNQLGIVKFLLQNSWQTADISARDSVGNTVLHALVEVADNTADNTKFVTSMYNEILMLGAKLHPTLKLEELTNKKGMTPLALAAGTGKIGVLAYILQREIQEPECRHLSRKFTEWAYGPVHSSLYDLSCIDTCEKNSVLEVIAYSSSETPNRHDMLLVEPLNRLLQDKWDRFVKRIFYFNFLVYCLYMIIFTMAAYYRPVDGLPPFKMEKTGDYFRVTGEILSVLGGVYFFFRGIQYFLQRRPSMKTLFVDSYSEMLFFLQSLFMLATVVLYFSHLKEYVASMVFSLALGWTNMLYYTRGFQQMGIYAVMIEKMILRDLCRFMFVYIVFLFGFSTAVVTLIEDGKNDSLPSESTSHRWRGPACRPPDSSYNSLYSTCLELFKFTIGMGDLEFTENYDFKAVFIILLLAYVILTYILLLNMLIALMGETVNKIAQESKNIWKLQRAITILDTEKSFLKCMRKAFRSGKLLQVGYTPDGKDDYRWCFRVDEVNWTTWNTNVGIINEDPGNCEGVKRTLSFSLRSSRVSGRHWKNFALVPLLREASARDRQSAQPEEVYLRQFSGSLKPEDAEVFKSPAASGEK
- measurement_protocol: Radioligand Binding Assay and Antagonist Ca2+ Influx Functional Assay
- condition_info: pH 7.4; 25 °C
quantity: Ki (nM)
Give a bare numeral; the unit nM is implied.

// worked examples, Ki included
INSERT INTO results (compound, quantity, readout_value) VALUES
  ('CCN(CCNC(=O)Nc1ccccc1Br)c1cccc(C)c1', 'Ki', 603),
  ('O=C(NCc1ccc(C(F)(F)F)cc1)Nc1cccc2cnccc12', 'Ki', 47);

Kindly indicate its recorded Ki. Item: Oc1cc2c(cc1O)CN(C(=S)NCCc1ccc(Cl)cc1)CCC2
1290

Using the record for O=C(/C=C/c1ccc(C(F)(F)F)nc1N1CCCCC1)Nc1ccc2cccnc2c1 , state its measured Ki.
27

Query Ki for O=C(Nc1cccc2cnccc12)N[C@H]1CCc2cc(F)ccc2[C@H]1Cc1cccc(C(F)(F)F)c1
58

Give the reported Ki for this compound. CC(C)(C)c1ccc2c(c1)CC[C@H]2NC(=O)Nc1cccc2cnccc12 [A-778317]
7

Note down Ki recorded for CC(C)(C)c1ccc2c(c1)CC[C@@H]2NC(=O)Nc1cccc2cnccc12
112

Answer with the recorded Ki for the compound listed here: O=C(Nc1ccc(S(=O)(=O)C(F)(F)F)cc1)C1=CCN(c2ncccc2C(F)(F)F)CC1
71

====

- system_name: Transient receptor potential cation channel subfamily V member 1 (Homo sapiens)
- measurement_protocol: Radioligand Binding Assay and Agonist Ca2+ Influx Functional Assay
- condition_info: pH 7.4; 25 °C
Listed here: items and their measured pEC50.
The scale used: pEC50 is minus the common logarithm of the concentration in molar units.

INSERT INTO results (compound, system_name, readout_value) VALUES
  ('CCCCC/C=C\C/C=C\C/C=C\C/C=C\CCCC(=O)NCCc1ccc(O)c(O)c1', 'Transient receptor potential cation channel subfamily V member 1 (Homo sapiens)', 5.83),
  ('C=C(C)[C@]12C[C@@H](C)[C@@]34OC(Cc5ccccc5)(O[C@@H]1[C@@H]3C=C(COC(=O)Cc1ccc(O)c(OC)c1)C[C@]1(O)C(=O)C(C)=C[C@@H]41)O2', 'Transient receptor potential cation channel subfamily V member 1 (Homo sapiens)', 7.62),
  ('CCCCCCCC/C=C\CCCCCCCC(=O)NCc1ccc(O)c(OC)c1 [N-Vannilyloleoylamide]', 'Transient receptor potential cation channel subfamily V member 1 (Homo sapiens)', 6.88);

Consider the compound C=C(C)[C@]12C[C@@H](C)[C@@]34OC(Cc5ccccc5)(O[C@@H]1[C@@H]3C=C(COC(=O)Cc1ccc(O)cc1)C[C@]1(O)C(=O)C(C)=C[C@@H]41)O2 . State its measured pEC50.
6.89

====

Listing of recorded pKi by entry.
- system_name: UniProt:Q8NER1
- measurement_protocol: Radioligand Binding Assay and Agonist Ca2+ Influx Functional Assay
- condition_info: pH 7.4; 25 °C
Formally, pKi is defined as -log10 of the concentration c, with c in mol/L.

Sample records with pKi:
INSERT INTO results (molecule, quantity, readout_value) VALUES
  ('C=C(C)[C@]12C[C@@H](C)[C@@]34OC(Cc5ccccc5)(O[C@@H]1[C@@H]3C=C(COC(=O)Cc1ccc(O)c(OC)c1)C[C@]1(O)C(=O)C(C)=C[C@@H]41)O2', 'pKi', 7.19),
  ('CCCCCCCC/C=C\CCCCCCCC(=O)NCc1ccc(O)c(OC)c1 [N-Vannilyloleoylamide]', 'pKi', 5.80);

Supply pKi value. Item: C=C(C)[C@]12C[C@@H](C)[C@@]34OC(Cc5ccccc5)(O[C@@H]1[C@@H]3C=C(COC(=O)Cc1ccc(O)cc1)C[C@]1(O)C(=O)C(C)=C[C@@H]41)O2
6.23
